// MIC collected for Acinetobacter baumannii ATCC 19606
Number only, in µM; omit the unit.

CC[C@H](C)[C@H](NC(C)=O)C(=O)N[C@@H](Cc1c[nH]c2ccccc12)C(=O)N[C@@H](CC(C)C)C(=O)N[C@H](C(=O)N[C@@H](CCCCN)C(=O)N[C@@H](C)C(=O)N[C@@H](CC(C)C)C(=O)N[C@@H](CCCCN)C(=O)N[C@@H](Cc1ccccc1)C(=O)N[C@@H](CC(C)C)C(=O)NCC(=O)N[C@@H](CCCCN)C(=O)N[C@@H](CC(N)=O)C(=O)N[C@@H](CC(C)C)C(=O)NCC(=O)N[C@@H](CCCCN)C(N)=O)[C@@H](C)O [IWLTKALKFLGKNLGK] : 2.68
CC[C@H](C)[C@H](NC(=O)[C@H](CCCNC(=N)N)NC(=O)CNC(=O)[C@H](CC(C)C)NC(=O)[C@H](Cc1ccccc1)NC(=O)[C@H](CCCCN)NC(=O)[C@H](CO)NC(=O)[C@H](Cc1ccccc1)NC(=O)[C@H](Cc1c[nH]c2ccccc12)NC(=O)[C@H](CCC(N)=O)NC(=O)[C@@H](NC(=O)[C@@H](N)Cc1ccccc1)C(C)C)C(=O)N[C@@H](CC(C)C)C(N)=O [FVQWFSKFLGRIL] : 6
CC[C@H](C)[C@@H]1NC(=O)CNC(=O)[C@H](CCCN=C(N)N)NC(=O)[C@H](Cc2ccc(O)cc2)NC(=O)[C@@H](NC(=O)[C@@H](NC(=O)[C@H](CCCN=C(N)N)NC(=O)[C@H](Cc2ccccc2)NC(=O)[C@H](CO)NC(=O)[C@H](Cc2c[nH]c3ccccc23)NC(=O)[C@@H](N)CCCCN)C(C)C)CSSC[C@@H](C(=O)N[C@@H](Cc2ccc(O)cc2)C(=O)N[C@@H](CCCN=C(N)N)C(=O)N[C@@H](CCCN=C(N)N)C(=O)N[C@@H](C)C(=O)N[C@@H](CCCN=C(N)N)C(=O)O)NC1=O [KWSFRVCYRGICYRRAR] : 0.113

Requested read-out: MIC. Entry: CC[C@H](C)[C@H](NC(=O)CNC(=O)[C@H](CCCCN)NC(=O)[C@H](CC(C)C)NC(=O)[C@@H](N)Cc1ccccc1)C(=O)N[C@H](C(=O)NCC(=O)N[C@@H](CCSC)C(=O)N[C@@H](CC(C)C)C(=O)NCC(=O)N[C@@H](CCCCN)C(=O)N[C@@H](CC(C)C)C(=O)N[C@@H](Cc1ccccc1)C(N)=O)C(C)C [FLKGIVGMLGKLF]
3

Requested read-out: MIC. Entry: CC(C)C[C@H](NC(=O)[C@H](CCCN=C(N)N)NC(=O)[C@H](Cc1c[nH]c2ccccc12)NC(=O)[C@H](Cc1c[nH]c2ccccc12)NC(=O)[C@H](Cc1c[nH]c2ccccc12)NC(=O)[C@H](CCCN=C(N)N)NC(=O)[C@@H](N)CC(C)C)C(N)=O [LRWWWRL]
64

Requested read-out: MIC. Entry: CC(C)C[C@H](NC(=O)[C@H](Cc1c[nH]c2ccccc12)NC(=O)[C@H](CCCCN)NC(=O)[C@H](CC(C)C)NC(=O)[C@H](Cc1c[nH]c2ccccc12)NC(=O)[C@H](CCCCN)NC(=O)[C@H](CCCCN)NC(=O)[C@H](CC(C)C)NC(=O)[C@H](Cc1c[nH]c2ccccc12)NC(=O)[C@@H](N)CCCCN)C(=O)N[C@@H](CCCCN)C(=O)N[C@@H](CCCCN)C(N)=O [KWLKKWLKWLKK]
4.75

Requested read-out: MIC. Entry: CC[C@H](C)[C@H](NC(=O)[C@H](CCCN=C(N)N)NC(=O)[C@H](CCCCN)NC(=O)[C@H](Cc1ccccc1)NC(=O)[C@H](Cc1c[nH]c2ccccc12)NC(=O)CN)C(=O)N[C@@H](CCCCN)C(=O)N[C@H](C(=O)N[C@@H](Cc1ccccc1)C(=O)N[C@@H](Cc1c[nH]c2ccccc12)C(N)=O)[C@@H](C)O [GWFKRIKTFW]
64

Requested read-out: MIC. Entry: CC[C@H](C)[C@H](NC(=O)[C@H](C)NC(=O)[C@H](CO)NC(=O)[C@@H]1CCCN1C(=O)[C@@H](NC(=O)[C@H](CC(C)C)NC(=O)[C@H](CO)NC(=O)[C@H](Cc1ccccc1)NC(=O)[C@H](CC(C)C)NC(=O)[C@@H](N)Cc1ccccc1)[C@@H](C)CC)C(=O)NCC(=O)NCC(=O)N[C@@H](CC(C)C)C(=O)N[C@H](C(=O)N[C@@H](CO)C(=O)N[C@@H](C)C(=O)N[C@@H](Cc1ccccc1)C(=O)N[C@@H](CCCCN)C(=O)O)[C@@H](C)CC [FLFSLIPSAIGGLISAFK]
20

* * *

System: Candida albicans ATCC 90028
// MIC lookup, one value per entry
Number only, in µM; omit the unit.

NC(N)=NCCC[C@H](NC(=O)[C@H](Cc1cnc[nH]1)NC(=O)[C@H](CO)NC(=O)[C@H](CCCN=C(N)N)NC(=O)[C@H](CCCN=C(N)N)NC(=O)[C@H](CS)NC(=O)[C@H](CCCN=C(N)N)NC(=O)[C@H](Cc1cnc[nH]1)NC(=O)[C@H](Cc1cnc[nH]1)NC(=O)[C@@H](N)CO)C(=O)N[C@@H](CS)C(=O)O [SHHRCRRSHRC] : 22.3

Look up MIC with Candida albicans ATCC 90028 for this compound: CC[C@H](C)[C@H](N)C(=O)N[C@@H](CCCN=C(N)N)C(=O)N[C@H](C(=O)N[C@@H](CCCCN)C(=O)N[C@H](C(=O)N[C@@H](CCCN=C(N)N)C(=O)N[C@H](C(=O)N[C@@H](CCCCN)C(N)=O)[C@@H](C)CC)[C@@H](C)CC)[C@@H](C)CC [IRIKIRIK]
1.56

Look up MIC with Candida albicans ATCC 90028 for this compound: CC[C@H](C)[C@H](NC(=O)[C@H](CC(C)C)NC(=O)[C@H](CCCCN)NC(=O)[C@H](CCCCN)NC(=O)[C@@H](NC(=O)[C@H](CC(C)C)NC(=O)[C@H](CO)NC(=O)[C@@H]1CCCN1C(=O)[C@@H](NC(=O)[C@H](CC(C)C)NC(=O)[C@H](CO)NC(=O)[C@H](Cc1ccccc1)NC(=O)[C@@H](N)Cc1ccccc1)[C@@H](C)CC)C(C)C)C(=O)N[C@@H](CCCCN)C(=O)N[C@@H](C)C(=O)N[C@@H](Cc1ccccc1)C(=O)N[C@@H](CCCCN)C(N)=O [FFSLIPSLVKKLIKAFK]
9.4

* * *

// MIC collected for Escherichia coli ATCC 11775
Number only, in µM; omit the unit.

CC(C)C[C@H](NC(=O)[C@H](Cc1c[nH]c2ccccc12)NC(=O)[C@H](CCCCN)NC(=O)[C@H](CC(C)C)NC(=O)[C@H](Cc1c[nH]c2ccccc12)NC(=O)[C@H](CCCCN)NC(=O)[C@H](CCCCN)NC(=O)[C@H](CC(C)C)NC(=O)[C@H](Cc1c[nH]c2ccccc12)NC(=O)[C@@H](N)CCCCN)C(=O)N[C@@H](CCCCN)C(=O)N[C@@H](CCCCN)C(N)=O : 1.19

Look up MIC with Escherichia coli ATCC 11775 for this compound: CC[C@H](C)[C@H](NC(=O)[C@@H]1CCCN1C(=O)[C@H](CCCCN)NC(=O)[C@@H]1CCCN1C(=O)[C@H](Cc1cnc[nH]1)NC(=O)[C@H](CO)NC(=O)[C@@H](NC(=O)[C@@H]1CCCN1C(=O)[C@H](CCCN=C(N)N)NC(=O)[C@@H]1CCCN1C(=O)[C@H](CO)NC(=O)[C@H](Cc1ccc(O)cc1)NC(=O)[C@@H]1CCCN1C(=O)[C@H](CCCN=C(N)N)NC(=O)[C@@H]1CCCN1C(=O)[C@H](CCCCN)NC(=O)CN)[C@@H](C)O)C(=O)N[C@@H](CCCN=C(N)N)C(=O)N[C@H](C(=O)O)C(C)C
6

* * *

Test system: Bacillus subtilis ATCC 6051
measured-metric: MIC (µM)
Number only, in µM; omit the unit.

See these solved cases before continuing.
CC(C)C[C@H](NC(=O)[C@H](C)N)C(=O)N[C@@H](Cc1c[nH]c2ccccc12)C(=O)N[C@@H](Cc1cnc[nH]1)C(=O)N[C@@H](Cc1cnc[nH]1)C(=O)N[C@@H](CC(C)C)C(=O)N[C@@H](CC(C)C)C(=O)N[C@@H](Cc1cnc[nH]1)C(=O)N[C@@H](Cc1cnc[nH]1)C(=O)N[C@@H](CC(C)C)C(=O)N[C@@H](CC(C)C)C(=O)N[C@@H](Cc1cnc[nH]1)C(=O)N[C@@H](CO)C(=O)N[C@@H](C)C(=O)N[C@@H](Cc1cnc[nH]1)C(=O)N[C@@H](Cc1cnc[nH]1)C(=O)N[C@@H](CC(C)C)C(=O)NCC(N)=O : 1.88
CC[C@H](C)[C@@H]1NC(=O)CNC(=O)[C@H](CCCN=C(N)N)NC(=O)[C@H](Cc2ccc(O)cc2)NC(=O)[C@@H](NC(=O)[C@@H](NC(=O)[C@H](CCCN=C(N)N)NC(=O)[C@H](Cc2ccccc2)NC(=O)[C@H](CO)NC(=O)[C@H](Cc2c[nH]c3ccccc23)NC(=O)[C@@H](N)CCCCN)C(C)C)CSSC[C@@H](C(=O)N[C@@H](Cc2ccc(O)cc2)C(=O)N[C@@H](CCCN=C(N)N)C(=O)N[C@@H](CCCN=C(N)N)C(=O)N[C@@H](C)C(=O)N[C@@H](CCCN=C(N)N)C(=O)O)NC1=O : 0.0563

Continue with the next compound.
Requested read-out: MIC. Entry: CC(C)C[C@H](NC(=O)[C@H](CC(C)C)NC(=O)[C@H](CCCCN)NC(=O)[C@H](CC(C)C)NC(=O)[C@H](CC(C)C)NC(=O)[C@H](CCCCN)NC(=O)[C@H](CCCCN)NC(=O)[C@H](CC(C)C)NC(=O)[C@@H](N)CC(C)C)C(N)=O
1.56
